Molecular target: T1, GST-INADL PDZ domain 3 (Homo sapiens (Human)), Q8NI35
T1 chain: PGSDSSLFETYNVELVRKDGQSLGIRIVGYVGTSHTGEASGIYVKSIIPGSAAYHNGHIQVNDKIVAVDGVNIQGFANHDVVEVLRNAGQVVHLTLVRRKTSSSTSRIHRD
Experiment: G' assay; also: key of the grades not given here
# Classification annotations

{"Binder": "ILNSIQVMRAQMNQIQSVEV (modifications not checked) [ephrin B2]", "Classification [A450 class]": 2}
{"Binder": "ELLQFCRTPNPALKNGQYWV (modifications not checked) [CSPG4 (chondroitin sulfae proteoglycan 4, melanoma-associated)]", "Classification [A450 class]": 3}
{"Binder": "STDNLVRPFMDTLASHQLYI (modifications not checked) [presenilin-2]", "Classification [A450 class]": 1}

Data origin, for the record: patent US20050282743A1
